Tested on: ducksalad (Heteranthera limosa)
Experiment: Test B flooded paddy test
Format: in vivo
Conditions: Heteranthera limosa, 250 g ai/ha, Flood; 0 to 100 scale where 0 is no effect and 100 is complete control; read-out: Ducksalad plant response rating
Measured pest or weed control at 250 g/ha, listed per entry.
reported_endpoint: pest or weed control at 250 g/ha

compound	observed
CSc1ccccc1NC(=O)[C@H]1C(=O)N(C)C[C@@H]1c1ccc(C(F)(F)F)cn1 [Compound 1051]	75%
Cc1c(F)cccc1NC(=O)[C@H]1C(=O)N(C)C[C@@H]1c1ccc(C(F)F)cc1 [Compound 1261]	100%
Cc1cc([C@H]2CN(C)C(=O)[C@@H]2C(=O)Nc2cccc(F)c2F)cc(C)c1Br [Compound 1024]	70%
C=C(C)c1cccc([C@H]2CN(C)C(=O)[C@@H]2C(=O)Nc2cccc(F)c2F)c1 [Compound 1085]	30%
Cc1cc([C@H]2CNC(=O)[C@@H]2C(=O)Nc2ccccc2Cl)ccc1C(F)(F)F [Compound 1044]	0%
Cc1cc([C@H]2CN(C)C(=O)[C@@H]2C(=O)Nc2ccccc2S(C)(=O)=O)ccc1Br [Compound 1102]	85%
CN1C[C@H](c2ccc3c(c2)CCO3)[C@@H](C(=O)Nc2ccccc2F)C1=O [Compound 1321]	85%
CSc1ccccc1NC(=O)[C@H]1C(=O)N(C)C[C@@H]1c1ccc(F)c(C)c1 [Compound 1312]	100%
Cc1c(F)cccc1NC(=O)[C@H]1C(=O)NC[C@@H]1c1cc(F)c(F)c(F)c1 [Compound 1125]	100%
CN1CC[C@H](c2ccc3c(c2)OC(F)(F)O3)[C@@H](C(=O)Nc2cccc(Cl)c2F)C1=O [Compound 1174]	90%
CN1C[C@H](c2ccc(C(F)(F)F)nc2)[C@@](C)(C(=O)Nc2cccc(F)c2F)C1=O [Compound 1109]	90%
CN1C[C@H](c2ccc([Si](C)(C)C)cc2)[C@@H](C(=O)Nc2cccc(F)c2F)C1=O [Compound 1168]	0%
O=C1NC[C@H](c2ccc3c(c2)CCC3)[C@H]1C(=O)Nc1cccc(F)c1F [Compound 1046]	100%
O=C1NC[C@H](c2cccc(C(F)(F)F)c2)[C@H]1C(=O)Nc1ccccc1-n1cncn1 [Compound 1290]	0%
C=C(C)c1ccc([C@H]2CN(C)C(=O)[C@@H]2C(=O)Nc2cccc(F)c2F)cc1 [Compound 1149]	75%
COc1cc([C@H]2CN(C)C(=O)[C@@H]2C(=O)Nc2ccccc2S(C)(=O)=O)ccc1F [Compound 1302]	80%

###

Tested on: Galium (catchweed bedstraw, Galium aparine)
Experiment: Test A postemergence
Assay type: in vivo
Conditions: Galium, post-emergence, 240 h, Postemergence, 500 g ai/ha; visual injury, 0 to 100 scale (0 no effect, 100 complete control), approx. 10 d; read-out: Plant response rating, Galium
Measured pest or weed control at 500 g/ha, listed per entry.

compound	pest or weed control at 500 g/ha (%)
O=C1NC[C@H](c2nccc(C(F)(F)F)n2)[C@H]1C(=O)Nc1ccccc1F [Compound 1304]	0
O=C1NC[C@H](c2cncs2)[C@H]1C(=O)Nc1cccc(F)c1F [Compound 1336]	0
Cc1nc([C@H]2CN(C)C(=O)[C@@H]2C(=O)Nc2ccccc2F)cs1 [Compound 1280]	0
O=C1NC[C@H](c2cncs2)[C@H]1C(=O)Nc1ccccc1F [Compound 1335]	0
CN1C[C@H](c2ccc3c(c2)CCO3)[C@@H](C(=O)Nc2ccccc2F)C1=O [Compound 1321]	50
CN1C[C@H](c2ccc(C(F)(F)F)cc2)[C@@H](C(=O)Nc2ccccc2)C1=O [Compound 1253]	60
CSc1ccccc1NC(=O)[C@H]1C(=O)N(C)C[C@@H]1c1ccc(F)c(C)c1 [Compound 1312]	60

Just for reference, patent US12077503B2 is where these values come from.
